Measurement Target: T1, human pIgR extracellular domain 4-domain 5 (D4-D5) (human, UniProt P01833 350-565)
T1 construct: HIS-tagged construct made in HEK293 cells; also called hpIgR domains 4-5
T1 chain: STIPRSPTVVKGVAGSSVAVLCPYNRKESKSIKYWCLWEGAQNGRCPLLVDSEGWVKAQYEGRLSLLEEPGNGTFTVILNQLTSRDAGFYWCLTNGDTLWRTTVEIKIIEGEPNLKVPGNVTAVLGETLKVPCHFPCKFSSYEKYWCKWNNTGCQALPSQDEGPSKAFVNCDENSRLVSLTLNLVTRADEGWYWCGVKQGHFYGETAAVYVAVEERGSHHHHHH
Protocol Notes: BLI (Octet RED384), 1:1 fit, 25 C, PBS; column kdis

>  <Binder>
VHH12-linker-mono-Fc protein (Fc fusion, made in CHO cells; also called VHH12-mono-Fc; hpIgR_266) QVQLVETGGGLVQAGDSLRLSCAASGRTLSFNTYAMGWFRQAPGKEREFVASITWNGGSTSYADSVKGRFTITRDNAKNTATLRMNSLQPDDTAVYYCAAARYYVSGTYFPANYWGQGTQVTVSSEPKTPKPQPQPQLQPQPNPTTESKSPKSPAPELLGGPSVFLFPPKPKDTLMISRTPEVTCVVVDVSHEDPEVKFNWYVDGVEVHNAKTKPREEQYNSTYRVVSVLTVLHQDWLNGKEYKCKVSNKALPAPIEKTISKAKGQPREPQVYTKPPSREEMTKNQVSLSCLVKGFYPSDIAVEWESNGQPENNYKTTVPVLDSDGSFRLASYLTVDKSRWQQGNVFSCSVMHEALHNHYTQKSLSLSPGK

>  <Unit>
s⁻¹

>  <koff>
0.00281

$$$$
>  <Binder>
VHH9-linker-mono-Fc protein (Fc fusion, made in CHO cells; also called VHH9-mono-Fc; hpIgR_221) QVQLVESGGGLVQAGGSLRLSCAVSGRTFSTYRMGWFRQAPGKERSFVAAISWSGGSTTYADPVKGRFTISRDNAKNTVYLRMNSLKPEDTAVYYCNDQRGYWGQGTLVTVSSEPKTPKPQPQPQLQPQPNPTTESKSPKSPAPELLGGPSVFLFPPKPKDTLMISRTPEVTCVVVDVSHEDPEVKFNWYVDGVEVHNAKTKPREEQYNSTYRVVSVLTVLHQDWLNGKEYKCKVSNKALPAPIEKTISKAKGQPREPQVYTKPPSREEMTKNQVSLSCLVKGFYPSDIAVEWESNGQPENNYKTTVPVLDSDGSFRLASYLTVDKSRWQQGNVFSCSVMHEALHNHYTQKSLSLSPGK

>  <Unit>
s⁻¹

>  <koff>
0.00169

$$$$
>  <Binder>
VHH10-linker-mono-Fc protein (Fc fusion, made in CHO cells; also called VHH10-mono-Fc; hpIgR_225) EVQVVESGGGLVQAGGSLRLSCAASGFTFTRYAMGWFRQAPGKERSFVAAISWSGSSAGYGDSVKGRFTISRDNAKNTLYLQMNSLKPEDTAVYYCAADPFNQGYWGQGTQVTVSSEPKTPKPQPQPQLQPQPNPTTESKSPKSPAPELLGGPSVFLFPPKPKDTLMISRTPEVTCVVVDVSHEDPEVKFNWYVDGVEVHNAKTKPREEQYNSTYRVVSVLTVLHQDWLNGKEYKCKVSNKALPAPIEKTISKAKGQPREPQVYTKPPSREEMTKNQVSLSCLVKGFYPSDIAVEWESNGQPENNYKTTVPVLDSDGSFRLASYLTVDKSRWQQGNVFSCSVMHEALHNHYTQKSLSLSPGK

>  <Unit>
s⁻¹

>  <koff>
0.00188

$$$$

Data credit: patent US20220324970A1
